Provenance of the data: ChEMBL document CHEMBL3769381

Target: Adenosine receptor A1 (Homo sapiens, UniProt P30542)
Sequence (P30542 whole entry): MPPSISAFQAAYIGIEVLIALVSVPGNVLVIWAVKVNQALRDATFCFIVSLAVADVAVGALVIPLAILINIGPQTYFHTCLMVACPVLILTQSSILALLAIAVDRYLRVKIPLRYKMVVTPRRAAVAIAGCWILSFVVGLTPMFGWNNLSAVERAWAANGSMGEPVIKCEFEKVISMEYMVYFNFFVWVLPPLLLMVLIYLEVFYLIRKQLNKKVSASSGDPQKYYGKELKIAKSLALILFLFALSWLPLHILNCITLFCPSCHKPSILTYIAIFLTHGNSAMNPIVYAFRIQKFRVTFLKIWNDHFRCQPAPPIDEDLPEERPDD
Assay: Displacement of [3H]CPX from human Adenosine A1 receptor expressed in CHO cells
Type: cell-based
READOUT_NAME: pKi
Lab note: report pKi as minus log10 of the concentration in molar units, number only.

In plain terms, O[C@@H]1[C@H](O)[C@@H](CSc2ccccc2F)O[C@H]1n1cnc2c(N[C@@H]3CCC[C@H]3O)ncnc21 [GS-9667] has a documented pKi of 5.96

* * *

Activity calls are given as the source filed them.
The following are reported pKA results, target or system Adenosine receptor A2a (Homo sapiens, UniProt P29274).

Illustrative cases are given below, each with its answer.
OC[C@H]1O[C@@H](n2cnc3c(N[C@@H]4CCC[C@H]4OCc4ccccc4)ncnc32)[C@H](O)[C@@H]1O
inactive
OC[C@H]1O[C@@H](n2cnc3c(NC45CC6CC(CC(C6)C4)C5)ncnc32)[C@H](O)[C@@H]1O
inactive
CN1[C@@H]2CCC[C@H]1C[C@@H](Nc1ncnc3c1ncn3[C@@H]1O[C@H](CO)[C@@H](O)[C@H]1O)C2
inactive
O[C@@H]1[C@H](O)[C@@H](CSc2ccccc2F)O[C@H]1n1cnc2c(N[C@@H]3CCC[C@H]3OCc3ccccc3)ncnc21
inactive
O[C@@H]1[C@H](O)[C@@H](CSc2ccccc2F)O[C@H]1n1cnc2c(N[C@@H]3CCC[C@H]3O)ncnc21 [GS-9667]
inactive
CN1[C@@H]2CCC[C@H]1C[C@@H](Nc1ncnc3c1ncn3[C@@H]1O[C@H](CSc3ccccc3F)[C@@H](O)[C@H]1O)C2
inactive
OC[C@H]1O[C@@H](n2cnc3c(NC4CCCC4)nc(Cl)nc32)[C@H](O)[C@@H]1O
4.7
CCNC(=O)[C@H]1O[C@@H](n2cnc3c(N4[C@@H]5CCC[C@H]4C[C@H](N)C5)ncnc32)[C@H](O)[C@@H]1O
inactive

In plain terms, CCNC(=O)[C@H]1O[C@@H](n2cnc3c(N[C@@H]4CCC[C@H]4O)ncnc32)[C@H](O)[C@@H]1O has a documented pKA of 4.6

In plain terms, OC[C@H]1O[C@@H](n2cnc3c(N[C@@H]4CCC[C@H]4O)ncnc32)[C@H](O)[C@@H]1O has a documented pKA of inactive

In plain terms, CCNC(=O)[C@H]1O[C@@H](n2cnc3c(NC4C5CC6CC(C5)CC4C6)ncnc32)[C@H](O)[C@@H]1O (stereo partly specified) has a documented pKA of inactive

* * *

Target: UniProt P29275
Sequence (P29275 whole entry): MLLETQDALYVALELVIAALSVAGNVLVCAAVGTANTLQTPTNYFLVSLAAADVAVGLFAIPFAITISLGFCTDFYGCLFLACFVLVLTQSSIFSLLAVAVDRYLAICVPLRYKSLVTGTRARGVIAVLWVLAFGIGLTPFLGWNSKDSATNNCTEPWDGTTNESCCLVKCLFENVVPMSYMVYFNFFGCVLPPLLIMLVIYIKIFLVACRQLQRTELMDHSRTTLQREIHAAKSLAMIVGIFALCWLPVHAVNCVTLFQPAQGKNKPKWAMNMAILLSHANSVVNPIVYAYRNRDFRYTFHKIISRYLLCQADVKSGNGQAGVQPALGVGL
Assay: Binding affinity to human Adenosine A2B receptor expressed in yeast cells coexpressed with GPA1/Galphas
Format: cell-based
Activity calls are given as the source filed them. No cut-off for these calls is given here.
READOUT_NAME: pKA

CCNC(=O)[C@H]1O[C@@H](n2cnc3c(NC4C5CC6CC(C5)CC4C6)ncnc32)[C@H](O)[C@@H]1O (stereo partly specified)
inactive
OC[C@H]1O[C@@H](n2cnc3c(N[C@@H]4CCC[C@H]4O)ncnc32)[C@H](O)[C@@H]1O
inactive
CCNC(=O)[C@H]1O[C@@H](n2cnc3c(N)ncnc32)[C@H](O)[C@@H]1O
4.2
CCNC(=O)[C@H]1O[C@@H](n2cnc3c(N[C@@H]4CCC[C@H]4O)ncnc32)[C@H](O)[C@@H]1O
4.2
O[C@@H]1[C@H](O)[C@@H](CSc2ccccc2F)O[C@H]1n1cnc2c(N[C@@H]3CCC[C@H]3O)ncnc21 [GS-9667]
inactive
CCNC(=O)[C@H]1O[C@@H](n2cnc3c(N)nc(NCCc4ccc(CCC(=O)O)cc4)nc32)[C@H](O)[C@@H]1O
3.4
CCNC(=O)[C@H]1O[C@@H](n2cnc3c(N4[C@@H]5CCC[C@H]4C[C@H](N)C5)ncnc32)[C@H](O)[C@@H]1O
inactive
CCNC(=O)[C@H]1O[C@@H](n2cnc3c(N[C@@H]4CCC[C@H]4OCc4ccccc4)ncnc32)[C@H](O)[C@@H]1O
3.5

In plain terms, CCNC(=O)[C@H]1O[C@@H](n2cnc3c(N[C@H]4C[C@H]5CCC[C@@H](C4)N5C)ncnc32)[C@H](O)[C@@H]1O has a documented pKA of inactive

In plain terms, CCNC(=O)[C@H]1O[C@@H](n2cnc3c(NC45CC6CC(CC(O)(C6)C4)C5)ncnc32)[C@H](O)[C@@H]1O has a documented pKA of inactive

In plain terms, O[C@@H]1[C@H](O)[C@@H](CSc2ccccc2F)O[C@H]1n1cnc2c(NC34CC5CC(CC(C5)C3)C4)ncnc21 has a documented pKA of inactive

In plain terms, O[C@@H]1[C@H](O)[C@@H](CSc2ccccc2F)O[C@H]1n1cnc2c(N[C@@H]3CCC[C@H]3OCc3ccccc3)ncnc21 has a documented pKA of inactive

In plain terms, OC[C@H]1O[C@@H](n2cnc3c(NC45CC6CC(CC(C6)C4)C5)ncnc32)[C@H](O)[C@@H]1O has a documented pKA of inactive

In plain terms, OC[C@H]1O[C@@H](n2cnc3c(N[C@@H]4CCC[C@H]4OCc4ccccc4)ncnc32)[C@H](O)[C@@H]1O has a documented pKA of inactive

In plain terms, CCNC(=O)[C@H]1O[C@@H](n2cnc3c(NC45CC6CC(CC(C6)C4)C5)ncnc32)[C@H](O)[C@@H]1O has a documented pKA of inactive

In plain terms, Nc1ncnc2c1ncn2[C@@H]1O[C@H](CO)[C@@H](O)[C@H]1O has a documented pKA of 3.8

* * *

Molecular target: Adenosine receptor A1 (Homo sapiens, UniProt P30542)
Sequence (P30542 whole entry): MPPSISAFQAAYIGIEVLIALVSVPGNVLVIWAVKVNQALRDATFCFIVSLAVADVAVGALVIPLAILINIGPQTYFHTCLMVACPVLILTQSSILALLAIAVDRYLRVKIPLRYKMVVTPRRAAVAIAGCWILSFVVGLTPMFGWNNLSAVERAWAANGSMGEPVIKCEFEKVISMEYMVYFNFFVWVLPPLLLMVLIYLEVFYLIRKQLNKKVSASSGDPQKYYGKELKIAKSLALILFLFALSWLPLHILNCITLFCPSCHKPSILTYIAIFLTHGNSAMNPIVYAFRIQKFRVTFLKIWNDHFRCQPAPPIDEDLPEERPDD
Test: Agonist activity at human Adenosine A1 receptor expressed in yeast cells coexpressed with chimeric GPA1/Galphai1 after 16 hrs by beta galactosidase reporter gene assay
READOUT_NAME: pEC50
Lab note: report pEC50 as minus log10 of the concentration in molar units, number only.

OC[C@H]1O[C@@H](n2cnc3c(N[C@@H]4CCC[C@H]4O)ncnc32)[C@H](O)[C@@H]1O
6.20
CCNC(=O)[C@H]1O[C@@H](n2cnc3c(N[C@@H]4CCC[C@H]4OCc4ccccc4)ncnc32)[C@H](O)[C@@H]1O
6.00
CCNC(=O)[C@H]1O[C@@H](n2cnc3c(NC45CC6CC(CC(C6)C4)C5)ncnc32)[C@H](O)[C@@H]1O
5.40
CCNC(=O)[C@H]1O[C@@H](n2cnc3c(NC45CC6CC(CC(O)(C6)C4)C5)ncnc32)[C@H](O)[C@@H]1O
4.00
OC[C@H]1O[C@@H](n2cnc3c(NC45CC6CC(CC(C6)C4)C5)ncnc32)[C@H](O)[C@@H]1O
4.80

In plain terms, CCNC(=O)[C@H]1O[C@@H](n2cnc3c(NC4C5CC6CC(C5)CC4C6)ncnc32)[C@H](O)[C@@H]1O (some centres not stated) has a documented pEC50 of 4.80

In plain terms, CCNC(=O)[C@H]1O[C@@H](n2cnc3c(N[C@@H]4CCC[C@H]4O)ncnc32)[C@H](O)[C@@H]1O has a documented pEC50 of 6.50

* * *

The following are reported log(activity) results, target or system Adenosine receptor A1 (Homo sapiens) (UniProt P30542).
Answer field: number only, no words.

CCNC(=O)[C@H]1O[C@@H](n2cnc3c(NC45CC6CC(CC(O)(C6)C4)C5)ncnc32)[C@H](O)[C@@H]1O
1
CCNC(=O)[C@H]1O[C@@H](n2cnc3c(NC45CC6CC(CC(C6)C4)C5)ncnc32)[C@H](O)[C@@H]1O
1.2
OC[C@H]1O[C@@H](n2cnc3c(N[C@@H]4CCC[C@H]4O)ncnc32)[C@H](O)[C@@H]1O
0.7

// next entry
In plain terms, CCNC(=O)[C@H]1O[C@@H](n2cnc3c(NC4C5CC6CC(C5)CC4C6)ncnc32)[C@H](O)[C@@H]1O (some centres undefined) has a documented log(activity) of 2.4
